Values compiled from the DeepSol protein solubility set.

- protocol: soluble on expression in E. coli; label from the status in PepcDB or PDB records
test readout: soluble on expression in E. coli

INSERT INTO measurements (input_sequence, value_observed) VALUES
  ('MAHHHHHHMDPLAGLTTGSRNVIDDFFRWSRLSLDKFKRDLTVEASAFQAGNLWREQYTKAEVAQMLNGQLALMLGVVDTQMEGTTAASAELMRAVLREADRQRVTLDIDVKSVLNNAGGVNAMGEHGRQLMSGPTGRLAPLTVEEASGEAARQLAEANAEVKRLQAKLQQVTDAYTQVMRGRSSDTENLLSMQDAMNDKERLAAELARRCQGQDPSLAATVQELRAEVAEAKRELASRLHQSTQYQQVKHLLAQRNEQLKMMRERLAAYDPSFARYGDDINAEDD', 'soluble'),
  ('MSNEEIKNKDEQLQQDAVETEAEVVGTDADIDWNQAADEIDEKEAKIAQLEAALLVSEERVKEQQDSVLRARAEVENMRRRSEQEVDKARKFALSRFAEELLPVIDNLERAIQAADGEVEAIKPLLEGVELTHKTFVDTIAKFGLKEINPHGEVFNPEFHQAMSIQESAEHEPNTVMFVMQKGYELNGRVLRPAMVMVSK', 'not soluble'),
  ('SDSFWEPGNYKRTTKRIEDGYKLCNDLQQLIQERADIEKGYAKSLRTWSKKWGELIEKGPEYGTTEAAWKGVLTESERISDVHMKIKDNLCNDVNSQIKTWQKENYHHTLMQIKERKDLEDLFKKAQKPWAKLLAKVEKAKADYHSACKTERSATNQERNANADSSLSPDQVKKMHDRVQKTKDQVQKCREKYEQAIAEITKYNSVYIEDMTSVFEKCQTFEKTRLQFFKEILFNVHSCLDLTKVQSLPQIYEEFSHTINNADQQKDLKWWSNNHGINMAMNWPSFVEYT', 'soluble'),
  ('MASSTSLAIVLHQSSNHDELFMKQTLQFSETLKDLKNLRKQLYSAAEYFETSYGKAEHKETVIETLKEYAAKAVVNTVDHLGSVSDKFNSFLSDNSTHFSTTHLRLSSLEQRMRLCRDYMGKSGTHQHLLLFQYPRHHKRYFFPQQGRGTSFSAGDDSHRFTSAVRSTILENLPNTARKANKTGSFSFAPIVHNNINNRTPNKRSNSPMRFPLLRSGSLLKRSSSPSQPKKPPLALPEPQRAISVSRNTEIVEIKQSSSRKGKKILMFKALMSMSKSRN', 'soluble'),
  ('SDRRTRENPERTFDLVLKVKCHASENEDPEVLWKFPEDFGDQEVLQSVPKFCFPFDVERVSQNQVGQHFTFVLTDMESKQRFGFCRLTSGGRICLCILSYLPWFEVYYKLLNTLADYLAKELEEDLNETLKSLYNHPVPKANTPVNLSVNQELFIASEQVLKDDPSLIPHSCFITPDITGLPTIPESRNLTEYFVAVDVNNMLRLYASMLHERRIIITSSKLSTVSPSHLRL', 'soluble'),
  ('VFRQTFLEFSQRTVSQARLDIGRKKLQELSSTFARAENEFGVPAGVIAAFWAMETDFGAVQGDFNTRNALVTLSHDCRRPELFRPQLLALIEMVQHGDLDPATNTGAWAGEIGQVQMLPKDIIAFGVDGDGNGHINVKDSAPDAILTAAKFIQHLGFKKGEPWMQEVSVPENLPWEKSGLGGSLTAGDWFALGVTPRDGNKNFASLPAALIMPQGRKGPTFITYPNFNIYLEWNQSFIYTTSAAYFANRLMGAPVY', 'not soluble');
